- target of assay: Casein kinase I isoform gamma-1 (Homo sapiens) (UniProt Q9HCP0)
- Sequence (Q9HCP0 whole entry, looked up, canonical isoform): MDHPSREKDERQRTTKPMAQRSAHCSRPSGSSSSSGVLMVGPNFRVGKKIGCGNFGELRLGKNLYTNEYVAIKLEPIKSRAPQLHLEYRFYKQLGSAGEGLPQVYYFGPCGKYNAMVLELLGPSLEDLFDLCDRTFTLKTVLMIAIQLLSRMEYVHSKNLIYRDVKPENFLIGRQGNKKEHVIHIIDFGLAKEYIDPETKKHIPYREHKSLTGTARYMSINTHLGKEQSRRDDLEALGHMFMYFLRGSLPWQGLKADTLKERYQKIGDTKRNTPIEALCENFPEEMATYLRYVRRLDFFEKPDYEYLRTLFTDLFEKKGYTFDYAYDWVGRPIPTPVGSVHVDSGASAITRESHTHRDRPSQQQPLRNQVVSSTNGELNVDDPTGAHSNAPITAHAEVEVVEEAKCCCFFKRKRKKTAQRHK
- condition notes: at 1 µM
- Description: Millipore: Percentage of residual kinase activity of CSNK1G1 at 1uM relative to control. Control inhibitor: Phosphoric acid* at 0.3uM. Buffer: 8 mM MOPS pH 7.0, 0.2 mM EDTA
Label True when residual activity is strictly below 70%; at or above that, label False.

INSERT INTO measurements (compound, target_of_assay, assigned_class) VALUES
  ('CSc1nc(-c2ccc(F)cc2)c(-c2ccnc(NC(C)c3ccccc3)c2)[nH]1 (stereo unspecified)', 'Casein kinase I isoform gamma-1 (Homo sapiens) (UniProt Q9HCP0)', 'True'),
  ('O=C(NC(NC(=S)Nc1ccc(F)c([N+](=O)[O-])c1)C(Cl)(Cl)Cl)C(c1ccccc1)c1ccccc1 (stereo unspecified)', 'Casein kinase I isoform gamma-1 (Homo sapiens) (UniProt Q9HCP0)', 'False'),
  ('NC(=O)c1cccc(-c2cc(Nc3ccc(OC(F)(F)F)cc3)ncn2)c1', 'Casein kinase I isoform gamma-1 (Homo sapiens) (UniProt Q9HCP0)', 'False'),
  ('O=c1cc(N2CCOCC2)oc2c1ccc1ccccc12', 'Casein kinase I isoform gamma-1 (Homo sapiens) (UniProt Q9HCP0)', 'False'),
  ('O=S(=O)(c1cccc2cnccc12)N1CCCNCC1', 'Casein kinase I isoform gamma-1 (Homo sapiens) (UniProt Q9HCP0)', 'False');

Data origin: ChEMBL document CHEMBL2218924
